targetSystem: TJP1_2, Q07157
Sequence (Q07157 181-274): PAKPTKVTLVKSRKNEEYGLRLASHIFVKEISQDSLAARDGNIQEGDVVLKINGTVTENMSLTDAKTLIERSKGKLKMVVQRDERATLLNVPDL
methodDescription: holdup assay
Parameters: key: below the threshold = too weak to quantify, mostly under pKd 3.1 to 4
testConditions: plain residues with an end cap or a label only (N-terminal biotin on a linker: ado-ado)
observable: pKd

Below, each entry is followed by its recorded pKd result.
- binder: "QKNKDREYYV [NRXN3, Q9HDB5]"
  pKd: 3.57
- binder: "IQISELETNV [SLC1A7, O00341]"
  pKd: "below the threshold"
- binder: "TKDKVQETQI [LRRC4, Q9HBW1]"
  pKd: 3.64
- binder: "AKADAQESRL [PLCB2, Q00722]"
  pKd: "below the threshold"
- binder: "FLVTEFNVML [DFNB31, Q9P202]"
  pKd: "below the threshold"
- binder: "GTMFLRETSL [GUCY1A2, P33402]"
  pKd: "below the threshold"
- binder: "SSSVNVSSNL [CXCR1, P25024]"
  pKd: "below the threshold"
- binder: "QKASRNESTF [POLR1D, P0DPB6]"
  pKd: "below the threshold"
- binder: "LPPPESESKV [KCNJ9, Q92806]"
  pKd: "below the threshold"

In plain terms, VYEVPVETKF [SLC26A3, P40879] has a documented pKd of below the threshold
